# Test system: hTERT-BJ1 cells
# test_details: MTT relative viability, PhTERT-SEAP (hTERT-BJ1) cells
# test_context: 20 μM, PhTERT-SEAP (hTERT-BJ1)
outcome_measure: Relative MTT viability (%)
Express it in %; write the number only.

Examples with answers:
> print(dat)
                                   molecule             outcome.measure  recorded.value
1  NCC1CC1CCC(=O)Nc1ccc(NC(=O)CCC2CC2CN)c2c1C(=O)c1ccccc1C2=O (centres unmarked)  Relative MTT viability (%)              92
2  Cc1cc(C(=O)Nc2ccc(NC(=O)c3cc(C)oc3C)c3c2C(=O)c2ccccc2C3=O)c(C)o1  Relative MTT viability (%)             101
3  O=C(Nc1ccc(NC(=O)c2ccc(F)cc2)c2c1C(=O)c1ccccc1C2=O)c1ccc(F)cc1  Relative MTT viability (%)             107

[Q] Form entry - test system: hTERT-BJ1 cells; read-out: Relative MTT viability (%); molecule: O=C(Nc1ccc(NC(=O)c2ccccc2F)c2c1C(=O)c1ccccc1C2=O)c1ccccc1F
[A] 105

[Q] Same read-out for O=C(Nc1ccc(NC(=O)c2cccc(F)c2)c2c1C(=O)c1ccccc1C2=O)c1cccc(F)c1 ?
[A] 97

* * *

# test_details: MTT relative viability, PhTERT-SEAP (H1299) cells
# test_context: human
outcome_measure: viability at 48 h, 189 µM (%)
Express it in %; write the number only.

[Q] Find the recorded viability at 48 h, 189 µM belonging to O=C1c2ccccc2C(=O)c2c(NC(=O)[C@@H]3C[C@H]3c3ccccc3)ccc(NC(=O)[C@@H]3C[C@H]3c3ccccc3)c21 (relative stereo) and report it.
[A] 94

* * *

# test_details: MTT relative viability, PhTERT-SEAP (hTERT-BJ1) cells
# test_context: human, hTERT-BJ1 cells
outcome_measure: viability at 48 h, 2.6 µM (%)
Express it in %; write the number only.

[Q] Find the recorded viability at 48 h, 2.6 µM belonging to CN(C)CCNc1cccc2c1C(=O)c1cccc(NCCN(C)C)c1C2=O and report it.
[A] 92

* * *

# Tested on: transcriptional activity of hTERT
# test_details: SEAP reporter assay of hTERT expression, PhTERT-SEAP (H1299)
# Format: cell-based, human
# test_context: 20 μM, PhTERT-SEAP(hTERT-H1299)
outcome_measure: Relative SEAP activity (%)
Express it in %; write the number only.

> print(dat)
                                   compound  recorded.value
1  O=C(Nc1ccc(NC(=O)c2cccc(F)c2)c2c1C(=O)c1ccccc1C2=O)c1cccc(F)c1             110

[Q] Find the recorded Relative SEAP activity (%) belonging to NCC1CC1CCC(=O)Nc1ccc(NC(=O)CCC2CC2CN)c2c1C(=O)c1ccccc1C2=O (centres unmarked) and report it.
[A] 112

[Q] Same read-out for O=C(Nc1ccc(NC(=O)c2ccccc2F)c2c1C(=O)c1ccccc1C2=O)c1ccccc1F ?
[A] 107

[Q] Same read-out for O=C(Nc1ccc(NC(=O)c2ccc(F)cc2)c2c1C(=O)c1ccccc1C2=O)c1ccc(F)cc1 ?
[A] 107

[Q] Same read-out for Cc1cc(C(=O)Nc2ccc(NC(=O)c3cc(C)oc3C)c3c2C(=O)c2ccccc2C3=O)c(C)o1 ?
[A] 103

* * *

# test_details: MTT relative viability, PhTERT-SEAP (hTERT-BJ1) cells
# test_context: human, hTERT-BJ1 cells, stable PhTERT-SEAP reporter clone
Listed molecules paired with reported viability at 48 h, 20 µM
Your reply should be a number followed by the unit it is expressed in.

[Q] Find the recorded viability at 48 h, 20 µM belonging to O=C(CCc1ccccc1)Oc1cccc2c1C(=O)c1cccc(OC(=O)CCc3ccccc3)c1C2=O and report it.
[A] 106%

[Q] Same read-out for O=C(Cc1cccs1)Nc1ccc(NC(=O)Cc2cccs2)c2c1C(=O)c1ccccc1C2=O ?
[A] 105%

* * *

# test_details: MTT relative viability, PhTERT-SEAP (hTERT-BJ1) cells
# test_context: human
outcome_measure: viability at 48 h, 3.3 µM (%)
Express it in %; write the number only.

[Q] Find the recorded viability at 48 h, 3.3 µM belonging to CCNc1cccc2c1C(=O)c1cccc(NCC)c1C2=O [IVa, 1,5-Bis(ethylamino)anthraquinone] and report it.
[A] 100

* * *

Listed compounds paired with reported viability at 48 h, 22 µM
# test_details: MTT relative viability, PhTERT-SEAP (hTERT-BJ1) cells
# test_context: human
Express it in %; write the number only.

Examples with answers:
> print(dat)
                                   compound  unit.tag  recorded.value
1  O=C(Oc1cccc2c1C(=O)c1cccc(OC(=O)c3ccccc3)c1C2=O)c1ccccc1 [IIIe, 1,5-Bis(benzoyloxy)-anthraquinone]         %              87
2  O=C1c2cccc(NCCc3ccccc3)c2C(=O)c2cccc(NCCc3ccccc3)c21 [IVs, 1,5-Bis(phenylethylamino)-anthraquinone]         %              92
3  O=C1c2cccc(SCCc3ccccc3)c2C(=O)c2cccc(SCCc3ccccc3)c21 [IIk, 1,5-Bis(phenylethylthio)-anthraquinone]         %              54
4  Nc1ccccc1Sc1cccc2c1C(=O)c1cccc(Sc3ccccc3N)c1C2=O [IIf, 1,5-Bis(o-aminophenylthio)-Anthraquinone]         %             107
5  O=C1c2cccc(SCc3ccccc3)c2C(=O)c2cccc(SCc3ccccc3)c21 [IIi, 1,5-Bis(benzylthio)-anthraquinone]         %              98
6  COc1ccc(CSc2cccc3c2C(=O)c2cccc(SCc4ccc(OC)cc4)c2C3=O)cc1 [IIj]         %              98

[Q] Find the recorded viability at 48 h, 22 µM belonging to Nc1cccc(Sc2cccc3c2C(=O)c2cccc(Sc4cccc(N)c4)c2C3=O)c1 [IIg, 1,5-Bis(m-aminophenylthio)-Anthraquinone] and report it.
[A] 9

[Q] Same read-out for Nc1ccc(Sc2cccc3c2C(=O)c2cccc(Sc4ccc(N)cc4)c2C3=O)cc1 [IIh, 1,5-Bis(p-aminophenylthio)-Anthraquinone] ?
[A] 65

* * *

# test_details: MTT relative viability, PhTERT-SEAP (hTERT-BJ1) cells
# test_context: human
outcome_measure: viability at 48 h, 2.3 µM (%)
Express it in %; write the number only.

[Q] Find the recorded viability at 48 h, 2.3 µM belonging to CCCCCC(=O)Oc1cccc2c1C(=O)c1cccc(OC(=O)CCCCC)c1C2=O [IIIc, 1,5-Bis(hexanoyloxy)-anthraquinone] and report it.
[A] 119

* * *

# test_details: MTT relative viability, PhTERT-SEAP (H1299) cells
# test_context: human
Listed compounds paired with reported viability at 48 h, 19 µM
Express it in %; write the number only.

Examples with answers:
> print(dat)
                                   compound  recorded.value
1  O=C(Oc1cccc2c1C(=O)c1cccc(OC(=O)c3cccc(Cl)c3)c1C2=O)c1cccc(Cl)c1              88
2  O=C(Oc1cccc2c1C(=O)c1cccc(OC(=O)c3ccc(Cl)cc3)c1C2=O)c1ccc(Cl)cc1              57
3  O=C(Cc1ccc(F)cc1)Nc1ccc(NC(=O)Cc2ccc(F)cc2)c2c1C(=O)c1ccccc1C2=O [VI32]             107

[Q] Find the recorded viability at 48 h, 19 µM belonging to O=C1c2c(O)ccc(O)c2C(=O)c2c(NCCNCCO)ccc(NCCNCCO)c21 [Mitoxantrone, reference compound] and report it.
[A] 57

[Q] Same read-out for O=C(Oc1cccc2c1C(=O)c1cccc(OC(=O)c3ccccc3Cl)c1C2=O)c1ccccc1Cl ?
[A] 34

* * *

# test_details: MTT relative viability, PhTERT-SEAP (hTERT-BJ1) cells
# test_context: human, hTERT-BJ1 cells stably transfected with PhTERT-SEAP reporter
outcome_measure: viability at 48 h, 310 µM (%)
Express it in %; write the number only.

[Q] Find the recorded viability at 48 h, 310 µM belonging to CC(=O)Nc1ccc(NC(C)=O)c2c1C(=O)c1ccccc1C2=O and report it.
[A] 49

* * *

# test_details: MTT relative viability, PhTERT-SEAP (H1299) cells
# test_context: human
Listed molecules paired with reported viability at 48 h, 3.1 µM
Express it in %; write the number only.

Examples with answers:
> print(dat)
                                 cpd.smiles  recorded.value
1      CCCNc1cccc2c1C(=O)c1cccc(NCCC)c1C2=O              99
2  CC(=O)Nc1ccc(NC(C)=O)c2c1C(=O)c1ccccc1C2=O             109

--- query ---
[Q] Find the recorded viability at 48 h, 3.1 µM belonging to CC(C)Nc1cccc2c1C(=O)c1cccc(NC(C)C)c1C2=O and report it.
[A] 114
